- Tested on: Plasmodium falciparum
- TEST_PROTOCOL: Antimalarial activity against chloroquine/pyrimethamine-resistant Plasmodium falciparum W2 after 48 hrs by [3H]hypoxanthine incorporation assay
- Assay type: functional, organism-based
RESULT_TYPE: IC50 (µM)
Unit µM implied. Number only.

State the recorded IC50 for this entry: CC[C@H]1OC(=O)[C@H](C)[C@@H](O)[C@H](C)[C@@H](O[C@@H]2O[C@H](C)C[C@H](N(C)C)[C@H]2O)[C@](C)(O)C[C@@H](C)CN(CCCNC(=S)NCc2ccccc2)[C@H](C)[C@@H](O)[C@]1(C)O
3.63

----------
- TEST_PROTOCOL: Apparent volume of distribution during terminal phase in Sprague-Dawley rat at 10 mg/kg, iv and 30 mg/kg, po
- Assay type: ADME, organism-based
- TEST_CONDITIONS: in vivo, read-out: Vz/F
Binary call on Vd/F: class 1 from 10 L/kg upward, class 0 beneath that.

Recorded results for 4 molecules are shown here.
>  <CHEM_SMILES>
CC[C@H]1OC(=O)[C@H](C)[C@@H](O[C@H]2C[C@@](C)(OC)[C@@H](O)[C@H](C)O2)[C@H](C)[C@@H](O[C@@H]2O[C@H](C)C[C@H](N(C)C)[C@H]2O)[C@](C)(O)C[C@@H](C)CN(CCCN(CCC#N)C(=O)Nc2ccc(Cl)cc2Cl)[C@H](C)[C@@H](O)[C@]1(C)O

>  <LABEL>
class 1

$$$$
>  <CHEM_SMILES>
CC[C@H]1OC(=O)[C@H](C)[C@@H](O[C@H]2C[C@@](C)(OC)[C@@H](O)[C@H](C)O2)[C@H](C)[C@@H](O[C@@H]2O[C@H](C)C[C@H](N(C)C)[C@H]2O)[C@](C)(O)C[C@@H](C)CN(CCCN(CCC#N)C(=S)NCCCc2ccccc2)[C@H](C)[C@@H](O)[C@]1(C)O

>  <LABEL>
class 1

$$$$
>  <CHEM_SMILES>
CC[C@H]1OC(=O)[C@H](C)[C@@H](O[C@H]2C[C@@](C)(OC)[C@@H](O)[C@H](C)O2)[C@H](C)[C@@H](O[C@@H]2O[C@H](C)C[C@H](N(C)C)[C@H]2O)[C@](C)(O)C[C@@H](C)CN(C)[C@H](C)[C@@H](O)[C@]1(C)O

>  <LABEL>
class 1

$$$$
>  <CHEM_SMILES>
CC[C@H]1OC(=O)[C@H](C)[C@@H](O[C@H]2C[C@@](C)(OC)[C@@H](O)[C@H](C)O2)[C@H](C)[C@@H](O[C@@H]2O[C@H](C)C[C@H](N(C)C)[C@H]2O)[C@](C)(O)C[C@@H](C)CN(CCCNC(=S)NCc2ccccc2)[C@H](C)[C@@H](O)[C@]1(C)O

>  <LABEL>
class 1

$$$$

Moving on to another molecule below.
Could you tell me if the measured Vd/F of CC[C@H]1OC(=O)[C@H](C)[C@@H](O[C@H]2C[C@@](C)(OC)[C@@H](O)[C@H](C)O2)[C@H](C)[C@@H](O[C@@H]2O[C@H](C)C[C@H](N(C)C)[C@H]2O)[C@](C)(O)C[C@@H](C)CN(CCCNC(=S)NCCCc2ccccc2)[C@H](C)[C@@H](O)[C@]1(C)O reaches 10 L/kg or more?
class 0
